Hello, the source for this data is PubChem BioAssay (NCI), in case you need it.

Recorded growth inhibition by entry
- Method: NCI Yeast Anticancer Drug Screen. Data for the cln2 rad14 strain (AID 165);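 note: 0% = growth equal to vehicle treated cultures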
- Condition: S. cerevisiae cln2 rad14 strain, at 50.0 µM, active compounds read high
- Description: Growth inhibition of yeast strains with defined genetic alterations is measured as a screen for potential anti-cancer activity. Selected strains with alterations in DNA damage repair or cell cycle control were exposed to compounds and growth inhibition was measured relative to vehicle treated controls. The strain used in this assay is cln2 rad14
Compounds without any hit were thinned out: in the full panel of roughly 79,000, 15% have a hit.
Assay Metric: growth inhibition (%)

Compound: CC(=O)Nc1ccc2c(Br)ccc3c2c1CC3
Assay Metric: growth inhibition
Units Symbol: %
Measured Number: 0.6

Compound: NC(=O)c1ccccc1NC(=O)C(=O)C(c1cnc2ccc([N+](=O)[O-])cc2n1)[N+](=O)[O-] (stereo not given)
Assay Metric: growth inhibition
Units Symbol: %
Measured Number: 12.9

Compound: O=C1CCCc2cc3c(cc21)CC1(Cc2ccccc2C1)C3
Assay Metric: growth inhibition
Units Symbol: %
Measured Number: -6.4

Compound: CN(C)c1ccc(/C=C(\C#N)C(=O)c2ccccc2)cc1
Assay Metric: growth inhibition
Units Symbol: %
Measured Number: -7.15

Compound: O=C(Nc1c(Cl)cccc1Cl)OCc1ccco1
Assay Metric: growth inhibition
Units Symbol: %
Measured Number: 3.15

Compound: CC1=C(C(=O)Nc2cc(F)c(F)cc2F)C(c2cccc([N+](=O)[O-])c2)C(C(=O)Nc2ccccc2C(F)(F)F)=C(C)N1 (stereo not given)
Assay Metric: growth inhibition
Units Symbol: %
Measured Number: 2.15

Compound: CCC1(CC)C(=O)N(C(=O)c2ccccc2)N(C(=O)c2ccc(Cl)cc2)C1=O
Assay Metric: growth inhibition
Units Symbol: %
Measured Number: 32.5

Compound: CCO[C@H]1c2cc3c(cc2[C@@H](c2cc(OC)c(OC)c(OC)c2)[C@H]2C(=O)OC[C@@H]21)OCO3
Assay Metric: growth inhibition
Units Symbol: %
Measured Number: 28.7

Compound: C[Si](C)(CCCNCCN)O[Si](C)(C)CCCNCCN
Assay Metric: growth inhibition
Units Symbol: %
Measured Number: -2.1

Compound: Cc1cn(C2CC(O)C(CO)O2)c(=O)nc1NC1CC1 (stereo not given)
Assay Metric: growth inhibition
Units Symbol: %
Measured Number: -13
